Test system: CCRF-CEM leukemia
assayText: NCI tumour cell line growth inhibition, 48 h

compound: CN1CCN(C2CC(=O)c3c(Cl)sc(Cl)c32)CC1 (configuration not stated)
readingQualifier: =
TGI [µM]: 14.6
--
compound: C=CCN1C(=O)C/C(=C2/CCC(=O)N2CC=C)C1=O
readingQualifier: >
TGI [µM]: 100
--
compound: CCCN(CCC)c1c([N+](=O)[O-])cc(C(N)=O)cc1[N+](=O)[O-]
readingQualifier: >
TGI [µM]: 100
--
compound: O=C(Nc1ccccc1C(=O)O)C(=Cc1ccccc1O)NC(=O)c1ccccc1
readingQualifier: >
TGI [µM]: 100
--
compound: CCC(C)Cn1c(C)nc2c1C(=O)c1ccccc1C2=O (configuration not stated)
readingQualifier: =
TGI [µM]: 96.8
--
compound: CO[C@H]1/C=C/C=C/C=C/C[C@H](OC(=O)[C@@H](C)NC(=O)C2CCCCC2)[C@H](C)[C@@H](O)/C(C)=C\CCC2=CC(=O)C=C(NC(=O)C1)C2=O
readingQualifier: >
TGI [µM]: 50
--
compound: CCC1C(=O)OCc2c1cc1n(c2=O)Cc2ccccc2-1 (configuration not stated)
readingQualifier: >
TGI [µM]: 100
--
compound: CC1CC2OC(=N)C1(C#N)C2(C#N)C#N (configuration not stated)
readingQualifier: =
TGI [µM]: 44.3
--
compound: CCn1c(-c2nonc2N)nc2c(C#CC(C)(C)O)ncc(OCC3CCNCC3)c21
readingQualifier: >
TGI [µM]: 25
--
compound: CC1CCCc2c(CC3CC(=O)NC(=O)C3)nc(N)nc21 (configuration not stated)
readingQualifier: >
TGI [µM]: 100
--
compound: CCOC(=O)/C=C/C(Br)=C(Br)/C=C/C(=O)OCC
readingQualifier: =
TGI [µM]: 2.84
--
compound: CCOC(=O)Nc1ccc2nc(Sc3ccc(Cl)cc3)sc2c1
readingQualifier: >
TGI [µM]: 100
--
compound: CC(C)=CCCC1(C)C=Cc2c(ccc3c2[nH]c2cc(O)c(C)cc23)O1 (configuration not stated)
readingQualifier: =
TGI [µM]: 15.2
--
compound: CCc1cc2c(c3[nH]ccc13)[C@@H](C)C[C@H]2C
readingQualifier: =
TGI [µM]: 43.4
--
compound: Nc1ccc(C(=O)N/C(=C\c2ccc3c(c2)OCO3)c2nc3ccc4c(c3[nH]2)C(=O)c2ccccc2C4=O)cc1
readingQualifier: =
TGI [µM]: 92.6
--
compound: Cc1cnc2cc(Cl)ccc2c1SCC(=O)O
readingQualifier: >
TGI [µM]: 100
--
compound: CCCCOc1nc2ccccc2cc1C1CNC(=O)c2ccccc2N1 (configuration not stated)
readingQualifier: =
TGI [µM]: 18.8
--
compound: CC1=NNC(N)=N/C1=C\C(Sc1ccc(Cl)cc1)c1ccc(Cl)cc1Cl (configuration not stated)
readingQualifier: =
TGI [µM]: 7.62
--
compound: Clc1cc(-c2csc(Cl)c2)cs1
readingQualifier: >
TGI [µM]: 100
--
compound: CCN(CC)CCC1(C(=O)OC)SCCc2ccc(C)cc21 (configuration not stated)
readingQualifier: >
TGI [µM]: 100
--
compound: NS(=O)(=O)c1ccc(NS(=O)(=O)c2ccc(NC(=O)N(c3ccccc3)c3ccccc3)cc2)cc1
readingQualifier: >
TGI [µM]: 100
--
compound: CCN(CC)c1ccc(/C=C2/NC(=O)NC2=O)cc1
readingQualifier: >
TGI [µM]: 100

----------
Tested on: K-562 leukemia
assayText: NCI tumour cell line growth inhibition, 48 h; in the data active means GI50 below about 0.43 µM; inactive means the rest
Labels: active, inactive

compound: O=C(Nc1ccc(Oc2cccc(Cl)c2)c(Cl)c1)c1cccnc1
answerLabel: active
--
compound: O=C1c2ccccc2-c2c1c1ccccc1c(=O)n2CCCNCCO
answerLabel: active
--
compound: C=C1C(=O)O[C@H]2[C@H]1CC/C(COC(=O)c1ccc(Br)cc1)=C\CC[C@@]1(C)O[C@@H]21
answerLabel: inactive
--
compound: CCN(CC)c1ccc(/C=C2/NC(=O)NC2=O)cc1
answerLabel: inactive
--
compound: CCOC(=O)Nc1ccc2nc(Sc3ccc(Cl)cc3)sc2c1
answerLabel: active
--
compound: COC(=O)CCCCCCCCC(=O)c1c(C)[nH]c(/C=C2\N=C(c3ccc[nH]3)C=C2OC)c1C
answerLabel: inactive
--
compound: CCN(CC)CCn1nc2c3c(cccc3c1=O)-c1ccccc1-2
answerLabel: inactive
--
compound: CCN(CC)Cc1cc(Nc2c3ccc(Cl)cc3nc3c(C)cccc23)ccc1O
answerLabel: inactive
--
compound: COc1ccc(OC)c(/C=C/C(=O)c2ccc(SC)cc2)c1
answerLabel: inactive
--
compound: Cc1c(-c2ccnc(N)n2)c2c(n1-c1ccccc1)C(=O)c1ccccc1C2=O
answerLabel: inactive
--
compound: Nc1cc2ccncc2c2ccccc12
answerLabel: inactive
--
compound: CCN1CCN(c2nc(NNC(=O)c3cccc(OC)c3)nc(N3CCN(C(c4ccccc4)c4ccccc4)CC3)n2)CC1
answerLabel: inactive
--
compound: Cn1cc(C2=C(c3cccc(Cl)c3)C(=O)NC2=O)c2ccccc21
answerLabel: inactive
--
compound: O=C(c1nc2ccccc2[nH]1)C1C(c2cccc([N+](=O)[O-])c2)C2CC3CCCCC3N2[C@@]12C(=O)Nc1cc(Cl)ccc12 (some centres undefined)
answerLabel: inactive

----------
System: A498 renal
assayText: NCI tumour cell line growth inhibition, 48 h
readoutType: TGI (µM)

molecule: N#Cc1c(NC(=S)Nc2ccccc2)sc2c1CCCC2
assayedSystem: A498 renal
readingQualifier: >
result: 100
--
molecule: COc1ccc(C2C3=C(COC3=O)N(CCO)c3cc4c(cc32)CCC4)cc1OC (stereo unspecified)
assayedSystem: A498 renal
readingQualifier: >
result: 20
--
molecule: CCN(Cc1cccc(C)c1)c1ccc(CO)c(Cl)c1
assayedSystem: A498 renal
readingQualifier: =
result: 0.162
--
molecule: COc1cc2cc(C(=O)N3C[C@H](CCl)c4c3cc(O)c3ccccc43)[nH]c2c(OC)c1OC
assayedSystem: A498 renal
readingQualifier: =
result: 0.684
--
molecule: COc1ccc(OC)c(/C=C/C(=O)c2ccc(SC)cc2)c1
assayedSystem: A498 renal
readingQualifier: =
result: 30.3
--
molecule: Cc1nc2ccccc2nc1N1CCCC1
assayedSystem: A498 renal
readingQualifier: >
result: 100

----------
Tested on: NCI-H23 lung
assayText: NCI tumour cell line growth inhibition, 48 h
readoutType: TGI

compound: COc1cc2c3c4[n+](cc2c(OC)c1OC)CCC4CCC3 (stereo not given)
result: > 100 µM

compound: CCCN(CCC)c1c([N+](=O)[O-])cc(C(N)=O)cc1[N+](=O)[O-]
result: > 100 µM

compound: C/C(=N/NC(=O)c1ccccc1Nc1ccccc1C(=O)N/N=C(\C)c1ccc(C)cc1)c1ccc(C)cc1
result: > 100 µM

compound: COc1cc2cc(Oc3ccc(NC(=O)Nc4cc(C(F)(F)F)cc(C(F)(F)F)c4)cc3)c(C)nc2cc1OCCN1CCCCC1
result: 3.32 µM

compound: NC(=O)COc1ccc(Br)cc1Br
result: > 100 µM

----------
Tested on: IGROV1 ovarian
assayText: NCI tumour cell line growth inhibition, 48 h; in the data active = GI50 below about 0.43 µM; inactive = the rest
Labels: active, inactive

molecule: N#CSc1cc(-c2nc3ccccc3o2)ccc1N
assayedSystem: IGROV1 ovarian
answerLabel: inactive
--
molecule: Cn1cc(C2=C(c3cccc(Cl)c3)C(=O)NC2=O)c2ccccc21
assayedSystem: IGROV1 ovarian
answerLabel: inactive
--
molecule: CCCCCCCC(=O)O[C@H]1[C@H]2[C@@H](CC1(C)C)C(=O)[C@]13O[C@H]1C(=O)[C@]1(CO1)[C@]23C
assayedSystem: IGROV1 ovarian
answerLabel: inactive
--
molecule: Cc1cccc(Cc2cnc(NC(=O)/C=C/c3ccco3)s2)c1
assayedSystem: IGROV1 ovarian
answerLabel: active
--
molecule: CCN(CC)CCn1nc2c3c(cccc3c1=O)-c1ccccc1-2
assayedSystem: IGROV1 ovarian
answerLabel: inactive
--
molecule: COc1ccc(OC)c(/C=C/C(=O)c2ccc(SC)cc2)c1
assayedSystem: IGROV1 ovarian
answerLabel: inactive
--
molecule: Nc1ccc(Sc2ccc3c4c2cccc4c(=O)n2c4ccccc4nc32)cc1
assayedSystem: IGROV1 ovarian
answerLabel: inactive
--
molecule: CCN(CC)c1ccc(/C=C2/NC(=O)NC2=O)cc1
assayedSystem: IGROV1 ovarian
answerLabel: inactive
--
molecule: COC(=O)CCCCCCCCC(=O)c1c(C)[nH]c(/C=C2\N=C(c3ccc[nH]3)C=C2OC)c1C
assayedSystem: IGROV1 ovarian
answerLabel: inactive
--
molecule: O=C(Nc1ccc(Oc2cccc(Cl)c2)c(Cl)c1)c1cccnc1
assayedSystem: IGROV1 ovarian
answerLabel: inactive
--
molecule: Cc1c(-c2ccnc(N)n2)c2c(n1-c1ccccc1)C(=O)c1ccccc1C2=O
assayedSystem: IGROV1 ovarian
answerLabel: inactive
--
molecule: CCN(Cc1cccc(C)c1)c1ccc(CO)c(Cl)c1
assayedSystem: IGROV1 ovarian
answerLabel: active
--
molecule: Nc1cc2ccncc2c2ccccc12
assayedSystem: IGROV1 ovarian
answerLabel: inactive
--
molecule: S=C1NC2=C(CCOc3c2ccc2ccccc32)C(c2ccc(Cl)cc2)N1 (stereo unspecified)
assayedSystem: IGROV1 ovarian
answerLabel: inactive
--
molecule: CCN(CC)Cc1cc(Nc2c3ccc(Cl)cc3nc3c(C)cccc23)ccc1O
assayedSystem: IGROV1 ovarian
answerLabel: inactive
--
molecule: C[C@@H]1CC[C@H]2C(CN(C)CC3=C(C(F)(F)F)O[C@@H]4O[C@@]5(C)CC[C@H]6[C@H](C)CC[C@@H]3[C@@]46OO5)=C(C(F)(F)F)O[C@@H]3O[C@@]4(C)CC[C@@H]1[C@]32OO4
assayedSystem: IGROV1 ovarian
answerLabel: inactive

FYI, the data here is from PubChem BioAssay (NCI).
